# measurement target: TLR9 (Homo sapiens)
# Construct: expressed in transfected cells; host or cells: HEK293
# Sequence (Q9NR96 26-1032): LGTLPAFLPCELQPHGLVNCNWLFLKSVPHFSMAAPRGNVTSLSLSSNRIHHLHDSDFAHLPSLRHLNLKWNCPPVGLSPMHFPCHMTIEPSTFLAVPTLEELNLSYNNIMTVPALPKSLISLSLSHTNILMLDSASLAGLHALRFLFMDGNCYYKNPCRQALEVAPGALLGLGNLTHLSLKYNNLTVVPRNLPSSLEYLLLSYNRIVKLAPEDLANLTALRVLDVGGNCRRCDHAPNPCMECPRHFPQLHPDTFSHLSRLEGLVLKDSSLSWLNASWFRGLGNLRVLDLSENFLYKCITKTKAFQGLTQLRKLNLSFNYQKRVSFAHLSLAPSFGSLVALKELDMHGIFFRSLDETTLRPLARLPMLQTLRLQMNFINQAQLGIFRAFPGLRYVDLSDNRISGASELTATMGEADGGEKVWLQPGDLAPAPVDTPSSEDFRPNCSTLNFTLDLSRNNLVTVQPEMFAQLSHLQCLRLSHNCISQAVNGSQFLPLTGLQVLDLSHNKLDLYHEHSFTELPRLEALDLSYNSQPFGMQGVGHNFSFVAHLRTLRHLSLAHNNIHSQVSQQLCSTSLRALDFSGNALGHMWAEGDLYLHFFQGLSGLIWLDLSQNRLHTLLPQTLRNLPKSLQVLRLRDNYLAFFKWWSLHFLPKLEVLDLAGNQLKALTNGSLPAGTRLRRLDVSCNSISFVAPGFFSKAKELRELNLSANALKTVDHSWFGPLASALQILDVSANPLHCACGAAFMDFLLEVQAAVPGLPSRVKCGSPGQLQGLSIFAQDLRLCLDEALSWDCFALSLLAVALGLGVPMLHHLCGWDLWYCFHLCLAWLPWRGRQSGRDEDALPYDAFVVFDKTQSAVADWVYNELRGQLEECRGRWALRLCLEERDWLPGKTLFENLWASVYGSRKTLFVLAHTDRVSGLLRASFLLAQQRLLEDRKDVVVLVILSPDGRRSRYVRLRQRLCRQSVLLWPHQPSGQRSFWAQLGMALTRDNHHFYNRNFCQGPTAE
# experiment: TLR9 screening of (+)-morphinan library, SEAP reporter in HEK293 cells expressing TLR9
# Format: cell-based
# particulars: 10 μM; activator ODN2006; control (no activator) 0.14, activator 1.42 OD
measured endpoint: OD 650 nm (mean ± sd)

compound: COc1ccc2c3c1O[C@@H]1C(O)CC[C@]4(O)[C@H](C2)N(CC2CC2)CC[C@@]314 (single isomer, unassigned) [II-53b]
measured endpoint: OD 650 nm (mean ± sd)
reading: 1.00 ± 0.03 OD
--
compound: COc1ccc2c(c1O)[C@@]13CCN(C)[C@@H](C2)[C@@]1(O)CCC(=O)C3 [Compound I-25]
measured endpoint: OD 650 nm (mean ± sd)
reading: 0.52 ± 0.07 OD
--
compound: COc1ccc2c(c1O)[C@]13C=CCC[C@]1(O)[C@H](C2)N(C)CC3 [Compound I-22]
measured endpoint: OD 650 nm (mean ± sd)
reading: 0.10 ± 0.01 OD
--
compound: C=CCN1CC[C@@]23c4c5ccc(OC)c4OC2C(O)CCC3C1C5 (some centres unmarked) [II-19]
measured endpoint: OD 650 nm (mean ± sd)
reading: 0.15 ± 0.01 OD
--
compound: COC(=O)/C=C/c1cc(OC)c(O)c2c1CC1C3CCC(=O)C[C@@]23CCN1CC1CC1 (some centres unmarked) [II-14]
measured endpoint: OD 650 nm (mean ± sd)
reading: 0.13 ± 0.00 OD
--
compound: C=CCN1CC[C@@]23c4c5ccc(O)c4O[C@@H]2C(=O)CC[C@]3(O)[C@@H]1C5 [II-64]
measured endpoint: OD 650 nm (mean ± sd)
reading: 0.98 ± 0.01 OD
--
compound: COc1ccc2c3c1O[C@@H]1C(N)CC[C@]4(O)[C@H](C2)N(C)CC[C@@]314 (some centres unmarked) [II-43]
measured endpoint: OD 650 nm (mean ± sd)
reading: 0.09 ± 0.00 OD
--
compound: COc1cc(Br)c2c3c1OC1C(=O)CC[C@@H]4[C@H](C2)N(C)CC[C@@]314 (some centres unmarked) [II-11]
measured endpoint: OD 650 nm (mean ± sd)
reading: 0.44 ± 0.05 OD

* * *

# measurement target: TLR9 (Homo sapiens)
# Construct: expressed in transfected cells; host or cells: HEK293
# experiment: TLR9 screening of (+)-morphinan library, SEAP reporter in HEK293 cells expressing TLR9
# Type: cell-based
# particulars: 100 nM; activator ODN2006; 0.1 µM
Listed here are compounds together with their documented % Inhibition (mean).

compound: COC1=CCC2[C@@H]3Cc4ccc(OC)c5c4[C@]2(CCN3CC2CC2)[C@@H]1O5 (stereo partly shown) [II-95]
% Inhibition (mean): 22%
//
compound: COc1ccc2c3c1O[C@@H]1C(=O)CC[C@@H]4[C@H](C2)N(C(=O)C2CC2)CC[C@@]314 [II-57]
% Inhibition (mean): 41%
//
compound: COc1ccc2c3c1O[C@@H]1C(O)CC[C@]4(O)[C@H](C2)N(CC2CC2)CC[C@@]314 (single isomer, unassigned) [II-53b]
% Inhibition (mean): 1%
//
compound: COC1=CCC2[C@@H]3Cc4ccc(OC)c5c4[C@]2(CCN3CC2CC2)[C@@H]1O5 (stereo partly shown) [II-87]
% Inhibition (mean): 10%
//
compound: C=CCN1CC[C@@]23c4c5ccc(OC)c4OC2C(OC(C)=O)CC[C@@H]3C1C5 (single isomer, unassigned) [II-94b]
% Inhibition (mean): 17%
//
compound: COc1ccc2c3c1O[C@@H]1C(O)CC[C@]4(O)[C@H](C2)N(CC2CC2)CC[C@@]314 (single isomer, unassigned) [II-53a]
% Inhibition (mean): 14%
//
compound: COc1ccc2c3c1O[C@@H]1C(=O)CC[C@@H]4[C@H](C2)N(C(=O)C2CC2)CC[C@@]314 [II-30]
% Inhibition (mean): 5%

* * *

# measurement target: TLR9 (Homo sapiens, UniProt Q9NR96)
# Construct: expressed in transfected cells; host or cells: HEK293
# experiment: TLR9 screening of (+)-morphinan library, SEAP reporter in HEK293 cells expressing TLR9
# Format: cell-based
# particulars: 100 nM; activator ODN2006; control (no activator) 0.14, activator 1.42 OD
Measured OD 650 nm (mean ± sd) by item
measured endpoint: OD 650 nm (mean ± sd) (OD)

compound: COc1cc(Br)c2c3c1O[C@@H]1C(=O)CCC4C(C2)N(CC2CC2)CC[C@]341 (stereo partly shown)
reading unit: OD
reading: 1.16
//
compound: C=CCN1CC[C@@]23c4c5ccc(OC)c4O[C@@H]2C(=O)CC[C@]3(O)[C@@H]1C5
reading unit: OD
reading: 1.18
//
compound: COC(=O)/C=C/c1cc(OC)c(O)c2c1CC1C3CCC(=O)C[C@@]23CCN1CC1CC1 (stereo partly shown)
reading unit: OD
reading: 1.18
//
compound: C=CCN1CC[C@]23C4=CC=C(OC)[C@H]2Oc2c(OC)ccc(c23)C[C@@H]41
reading unit: OD
reading: 1.04

* * *

# measurement target: TLR9 (Homo sapiens, UniProt Q9NR96)
# Construct: expressed in transfected cells; host or cells: HEK293
# experiment: TLR9 screening of (+)-morphinan library, SEAP reporter in HEK293 cells expressing TLR9
# Assay type: cell-based
# particulars: 10 μM; activator ODN2006; control (no activator) 0.14, activator 1.42 OD

molecule: COc1ccc2c3c1O[C@@H]1C(=O)CC[C@]4(O)[C@H](C2)N(C(=O)c2ccccc2)CC[C@@]314
measurement target: TLR9 (Homo sapiens, UniProt Q9NR96)
OD 650 nm (mean ± sd): 0.17 ± 0.03 OD

molecule: COc1ccc2c3c1O[C@@H]1[C@@H]4CCC5(O4)[C@H](C2)N(CC2CC2)CC[C@@]315
measurement target: TLR9 (Homo sapiens, UniProt Q9NR96)
OD 650 nm (mean ± sd): 0.49 ± 0.01 OD

molecule: COc1ccc2c3c1O[C@@H]1C(=O)CC[C@@H]4[C@H](C2)N(C(=O)C2CCC2)CC[C@@]314
measurement target: TLR9 (Homo sapiens, UniProt Q9NR96)
OD 650 nm (mean ± sd): 1.45 ± 0.04 OD

molecule: COC1=CC=C2[C@@H]3Cc4ccc(OC)c5c4[C@]2(CCN3CC2CCC2)[C@@H]1O5
measurement target: TLR9 (Homo sapiens, UniProt Q9NR96)
OD 650 nm (mean ± sd): 0.18 ± 0.06 OD

molecule: COc1ccc2c(c1O)[C@@]13CCN(C)[C@@H](C2)[C@@]1(O)CC(OC)C(=O)C3 (stereo partly shown)
measurement target: TLR9 (Homo sapiens, UniProt Q9NR96)
OD 650 nm (mean ± sd): 1.03 ± 0.01 OD

molecule: CC(=O)NC1CC[C@]2(O)[C@@H]3Cc4ccc(O)c5c4[C@]2(CCN3CC2CC2)[C@@H]1O5 (stereo partly shown)
measurement target: TLR9 (Homo sapiens, UniProt Q9NR96)
OD 650 nm (mean ± sd): 0.91 ± 0.11 OD

molecule: COc1ccc2c3c1O[C@@H]1C(OC)(OC)CCC4[C@H](C2)N(CC2CC2)CC[C@]341 (stereo partly shown)
measurement target: TLR9 (Homo sapiens, UniProt Q9NR96)
OD 650 nm (mean ± sd): 0.14 ± 0.01 OD

molecule: COc1ccc2c(c1O)[C@@]13CCN(C)[C@@H](C2)[C@H]1CC(OC)C(O)C3 (stereo partly shown)
measurement target: TLR9 (Homo sapiens, UniProt Q9NR96)
OD 650 nm (mean ± sd): 1.04 ± 0.08 OD

molecule: COc1cc(Br)c2c(c1O)[C@@]13CCNC(C2)C1CCC(=O)C3 (stereo partly shown)
measurement target: TLR9 (Homo sapiens, UniProt Q9NR96)
OD 650 nm (mean ± sd): 0.21 ± 0.01 OD

molecule: C=CCN1CC[C@@]23c4c5ccc(OC)c4OC2C(OC(C)=O)CC[C@@H]3C1C5 (single isomer, unassigned) [II-94b]
measurement target: TLR9 (Homo sapiens, UniProt Q9NR96)
OD 650 nm (mean ± sd): 1.30 ± 0.05 OD

molecule: COC1=CCC2[C@@H]3Cc4ccc(OC)c5c4[C@]2(CCN3CC2CC2)[C@@H]1O5 (stereo partly shown) [II-87]
measurement target: TLR9 (Homo sapiens, UniProt Q9NR96)
OD 650 nm (mean ± sd): 0.45 ± 0.01 OD

molecule: C=CCN1CC[C@@]23c4c5ccc(OC)c4OC2C(NCCC)CCC3C1C5 (stereo partly shown)
measurement target: TLR9 (Homo sapiens, UniProt Q9NR96)
OD 650 nm (mean ± sd): 0.11 ± 0.01 OD

molecule: COc1ccc2c3c1O[C@@H]1C(O)CC[C@]4(O)[C@H](C2)N(C)CC[C@@]314 (stereo partly shown)
measurement target: TLR9 (Homo sapiens, UniProt Q9NR96)
OD 650 nm (mean ± sd): 1.37 ± 0.07 OD

molecule: COc1cc(Br)c2c3c1O[C@@H]1C(=O)CCC4C(C2)N(CC2CC2)CC[C@]341 (stereo partly shown)
measurement target: TLR9 (Homo sapiens, UniProt Q9NR96)
OD 650 nm (mean ± sd): 0.53 ± 0.05 OD

molecule: CO[C@]12CCC(=O)[C@H]3Oc4c(O)ccc5c4[C@]31CCN(CC1CC1)[C@H]2C5
measurement target: TLR9 (Homo sapiens, UniProt Q9NR96)
OD 650 nm (mean ± sd): 1.06 ± 0.11 OD

molecule: COC(=O)CCc1cc(OC)c(O)c2c1CC1C3CCC(=O)C[C@@]23CCN1CC1CC1 (stereo partly shown)
measurement target: TLR9 (Homo sapiens, UniProt Q9NR96)
OD 650 nm (mean ± sd): 0.46 ± 0.05 OD
